Where do these numbers come from? They come from patent US9028845B2.

Form field: IFN-α mean (one value per entry).
# System: human PBMCs
# testDetails: Human PBMC cytokine response assay (IFN-γ and IFN-α in cell-free medium by ELISA), with or without cPLGA
# Format: cell-based
# experimentalConditions: Table 11; mean of donors
parameterMeasured: IFN-α mean (pg/mL)

| substance | measurement |
| --- | --- |
| 5′-TCGTCGA-3′-HEG-5′-ACGTTCG-3′-HEG-5′-GGGGGG-3′ [Compound C-49] | 57 |
| 5′-TCGTCGA-3′-HEG-5′-ACGTTCG-3′-HEG-5′-AGATGAT-3′ [Compound C-8] | 103 |
| (5′-TCGTCGA-3′-HEG)2-glycerol-HEG-5′-TCGTCGA-3′ (phosphodiester) [Compound C-93] | 38 |
| 5′-GsGs-3′-C3-5′-TCGTGC-3′-C3-5′-ATCGAT-3′-C3-5′-GCACGA-3′-C3-5′-GGsGsGsGsG-3′ (s = phosphorothioate linkages, otherwise linkages are phosphodiester) [Compound C-85] | 13 |
